Target Of Assay: GABAA-R (Homo sapiens, UniProt P14867+P47870)
Sequence (P14867 whole entry): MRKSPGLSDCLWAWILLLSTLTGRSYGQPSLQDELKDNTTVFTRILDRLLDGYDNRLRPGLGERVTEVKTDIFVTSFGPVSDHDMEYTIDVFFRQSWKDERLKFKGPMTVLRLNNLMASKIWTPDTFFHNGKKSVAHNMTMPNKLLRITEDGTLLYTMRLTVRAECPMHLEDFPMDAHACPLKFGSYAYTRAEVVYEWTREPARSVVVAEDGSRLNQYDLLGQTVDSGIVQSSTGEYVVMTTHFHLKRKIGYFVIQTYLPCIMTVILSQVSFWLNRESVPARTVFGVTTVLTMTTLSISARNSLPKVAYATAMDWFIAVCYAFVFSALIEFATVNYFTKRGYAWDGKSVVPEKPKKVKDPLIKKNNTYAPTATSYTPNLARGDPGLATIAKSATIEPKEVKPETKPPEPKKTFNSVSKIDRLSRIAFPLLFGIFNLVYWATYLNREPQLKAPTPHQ
Sequence (P47870 whole entry): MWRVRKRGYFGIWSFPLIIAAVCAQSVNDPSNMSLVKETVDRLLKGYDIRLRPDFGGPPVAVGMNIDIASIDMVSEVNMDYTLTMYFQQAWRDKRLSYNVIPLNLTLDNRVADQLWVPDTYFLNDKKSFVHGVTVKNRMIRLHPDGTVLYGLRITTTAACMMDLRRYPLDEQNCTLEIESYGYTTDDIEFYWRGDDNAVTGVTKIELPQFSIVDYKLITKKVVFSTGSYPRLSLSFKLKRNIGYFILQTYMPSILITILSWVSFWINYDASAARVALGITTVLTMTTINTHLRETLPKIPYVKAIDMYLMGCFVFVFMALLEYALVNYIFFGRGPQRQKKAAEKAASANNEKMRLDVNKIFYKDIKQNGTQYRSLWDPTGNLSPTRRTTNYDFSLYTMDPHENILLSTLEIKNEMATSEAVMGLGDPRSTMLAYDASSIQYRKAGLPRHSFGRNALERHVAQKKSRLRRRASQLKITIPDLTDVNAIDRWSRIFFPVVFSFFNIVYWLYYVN
Assay Notes: Electrophysiological evaluation at GABAA-R (Table 2)
Type: cell-based
Experimental Context: GABAA-R electrophysiology
Endpoint: Emax

Here's what some known entries look like.
- C[C@@]1(O)CC[C@H]2[C@H](CC[C@@H]3[C@@H]2CC[C@]2(C)[C@@H](C(=O)Cn4cc([N+](=O)[O-])cn4)CC[C@@H]32)C1: 0 to 500%
- C[C@@]1(O)CC[C@H]2[C@H](CC[C@@H]3[C@@H]2CC[C@]2(C)[C@@H](C(=O)Cn4cccn4)CC[C@@H]32)C1: 0 to 500%
- C[C@@]1(O)CC[C@H]2[C@H](CC[C@@H]3[C@@H]2CC[C@]2(C)[C@@H](C(=O)Cn4cc(Br)cn4)CC[C@@H]32)C1: 0 to 500%

Okay, now this compound:
QUERY: Write down the reported Emax (system: GABAA-R (Homo sapiens, UniProt P14867+P47870)) of C[C@@]1(O)CC[C@H]2[C@H](CC[C@@H]3[C@@H]2CC[C@]2(C)[C@@H](C(=O)Cn4ccc(C(F)(F)F)n4)CC[C@@H]32)C1
RESULT: 500 to 1000%
